system: peptide-specific IgG in plasma of prostate cancer patients and healthy donors; experiment: Detection of peptide-specific IgG in plasma by ELISA; assay type: binding, human; details: Prostate cancer patients, Total
Readout Type: IgG reactive to peptide in plasma, Total (positive/tested)

{"columns": ["Input Sequence", "Reported Result"],
 "data": [
  ["EIASKFSER [PSMA 641-649]", "13/20"],
  ["SLLKNRFLR (PSA 104-112) [PSA-derived peptide]", "5/20"],
  ["RNKSVILLGR (PSA 68-77) [PSA-derived peptide]", "0/20"],
  ["LYLPFRNCPR (PAP 154-163) [PAP-derived peptide]", "3/20"],
  ["GLPDRPFYR [PSMA 680-688]", "12/20"],
  ["TLVFRHGDR [PAP 39-47]", "5/20"],
  ["VIARYGKVFR (PSMA 201-210) [PSMA-derived peptide]", "7/20"]
]}
